As an illustration, consider measured IC50 for compounds on human HDAC1 (Homo sapiens (Human), UniProt Q13547).
Sequence (Q13547 whole entry): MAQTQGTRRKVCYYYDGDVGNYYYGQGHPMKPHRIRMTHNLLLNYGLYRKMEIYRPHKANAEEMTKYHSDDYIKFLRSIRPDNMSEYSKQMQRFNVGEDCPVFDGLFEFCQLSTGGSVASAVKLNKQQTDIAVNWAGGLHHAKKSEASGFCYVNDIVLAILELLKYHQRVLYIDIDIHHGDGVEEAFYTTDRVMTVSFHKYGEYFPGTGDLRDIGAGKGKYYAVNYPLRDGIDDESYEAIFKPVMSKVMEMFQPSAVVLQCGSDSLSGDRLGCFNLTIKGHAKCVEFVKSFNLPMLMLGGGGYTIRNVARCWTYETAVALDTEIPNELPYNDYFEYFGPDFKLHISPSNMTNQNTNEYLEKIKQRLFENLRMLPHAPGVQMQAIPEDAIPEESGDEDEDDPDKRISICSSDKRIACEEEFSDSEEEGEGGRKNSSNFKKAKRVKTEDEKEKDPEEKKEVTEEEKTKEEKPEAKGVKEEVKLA
Give a bare numeral; the unit nM is implied.

Completed entries (count: 5):
CCN1CCC2(CC1)C[C@@H]2C(=O)N[C@@H](CCCCCC(=O)c1ncco1)c1ncc(-c2cc(OC)ncc2F)[nH]1 ... 2.3
COc1nc2ccccc2cc1-c1cnc([C@H](CCCCCC(=O)c2ncco2)NC(=O)c2cncs2)[nH]1 ... 1.7
COc1nc2ccccc2cc1-c1cnc([C@H](CCCCCC(=O)c2ncco2)NC(=O)CCCN(C)C)[nH]1 ... 0.3
CC(C)n1ccc2cc(-c3cnc([C@@H](N)CCCCCC(=O)c4ncco4)[nH]3)ccc2c1=O ... 2.1
CN1CCC2(CC1)C[C@@H]2C(=O)N[C@@H](CCCCCC(=O)c1ncco1)c1oc(-c2ccc(F)cc2)nc1C#N ... 2.5

As a next step, examine the compound that follows.
So the reported IC50 for COc1nc2ccccc2cc1-c1cnc([C@H](CCCCCC(=O)c2ncco2)NC(=O)Cn2cccc2)[nH]1 , on human HDAC1 (Homo sapiens (Human), UniProt Q13547), turned out to be 2.1

----------
Data export: IC50 values recorded with human HDAC3/SMRT heterodimer (Homo sapiens (Human)).
Field: numeric (nM). Do not append units.

# count of solved cases: 2
COc1cc2nc(C)ccc2cc1-c1cnc([C@H](CCCCCC(=O)c2ncco2)NC(=O)Cn2ccc(C)n2)[nH]1 ... 0.56
COc1cc2nc(C)ccc2cc1-c1cnc([C@H](CCCCCC(=O)c2ncco2)NC(=O)C2COC(c3ccccc3)CO2)[nH]1 (stereo partly drawn) ... 6.4

Query compound follows.
GET /value?item= COc1cc(-c2cnc([C@H](CCCCCC(=O)c3ncco3)NC(=O)C3CN(C)C3)[nH]2)c(F)cn1 &field=IC50 returns 1.5

----------
Here we list molecules with their recorded IC50 when tested on human HDAC3/SMRT heterodimer (Homo sapiens (Human), UniProt O15379).
Sequence (O15379 whole entry): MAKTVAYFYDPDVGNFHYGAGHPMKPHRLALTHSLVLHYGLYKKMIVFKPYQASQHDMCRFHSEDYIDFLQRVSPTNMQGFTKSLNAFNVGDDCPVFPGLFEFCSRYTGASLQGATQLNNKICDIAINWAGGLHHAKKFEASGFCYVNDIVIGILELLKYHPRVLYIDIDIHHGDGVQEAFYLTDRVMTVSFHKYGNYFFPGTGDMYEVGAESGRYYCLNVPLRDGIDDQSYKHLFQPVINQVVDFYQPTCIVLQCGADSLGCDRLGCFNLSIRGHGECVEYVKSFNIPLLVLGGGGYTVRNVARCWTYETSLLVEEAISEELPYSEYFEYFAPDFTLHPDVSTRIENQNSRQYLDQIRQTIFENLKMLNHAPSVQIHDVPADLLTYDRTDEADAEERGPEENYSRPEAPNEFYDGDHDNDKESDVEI
Sequence (Q9Y618 1-899 partner): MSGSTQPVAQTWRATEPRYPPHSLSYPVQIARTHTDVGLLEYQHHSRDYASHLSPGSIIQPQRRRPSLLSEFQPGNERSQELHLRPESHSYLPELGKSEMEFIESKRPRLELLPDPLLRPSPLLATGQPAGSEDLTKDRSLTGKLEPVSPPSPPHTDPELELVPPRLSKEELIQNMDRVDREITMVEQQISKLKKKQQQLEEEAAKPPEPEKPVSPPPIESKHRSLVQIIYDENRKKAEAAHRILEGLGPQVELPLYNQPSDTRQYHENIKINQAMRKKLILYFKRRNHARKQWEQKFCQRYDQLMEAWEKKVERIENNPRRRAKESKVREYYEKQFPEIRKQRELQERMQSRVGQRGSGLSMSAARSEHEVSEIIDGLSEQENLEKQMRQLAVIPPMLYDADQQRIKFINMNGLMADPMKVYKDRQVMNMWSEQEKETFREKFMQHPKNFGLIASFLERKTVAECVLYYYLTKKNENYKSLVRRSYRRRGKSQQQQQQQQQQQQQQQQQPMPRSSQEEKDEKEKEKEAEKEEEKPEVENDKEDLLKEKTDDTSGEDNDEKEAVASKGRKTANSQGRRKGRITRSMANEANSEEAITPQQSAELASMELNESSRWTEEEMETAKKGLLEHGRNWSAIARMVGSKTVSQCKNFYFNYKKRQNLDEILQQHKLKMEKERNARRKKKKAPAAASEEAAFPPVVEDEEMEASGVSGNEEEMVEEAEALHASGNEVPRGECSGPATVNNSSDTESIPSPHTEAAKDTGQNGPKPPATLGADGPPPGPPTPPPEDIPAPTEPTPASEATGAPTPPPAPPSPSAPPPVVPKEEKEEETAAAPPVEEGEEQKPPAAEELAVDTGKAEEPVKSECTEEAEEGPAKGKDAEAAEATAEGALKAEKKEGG
Field format: number, assumed nM, no unit text.

Consider the following illustrative entries.
COc1nc2ccccc2cc1-c1cnc([C@H](CCCCCC(=O)c2ncco2)NC(=O)C2(c3cnccn3)CC2)[nH]1 ... 1.3
COc1cc2nc(C)ccc2cc1-c1cnc([C@H](CCCCCC(=O)c2ncco2)NC(=O)C2COc3ccccc3O2)[nH]1 (stereo partly drawn) ... 4
Cc1cc(C(=O)CCCCC[C@H](NC(=O)CN(C)C)c2nc(-c3ccccc3F)c[nH]2)no1 ... 0.15
COc1nc2ccccc2cc1-c1cnc([C@H](CCCCCC(=O)c2ncco2)NC(=O)c2ccncn2)[nH]1 ... 1.5
NC(CCCCCC(=O)c1ccon1)c1cnn(-c2ccc(F)cc2)c1 (stereo not drawn) [Example 121] ... 14

Tested on human HDAC3/SMRT heterodimer (Homo sapiens (Human), UniProt O15379): COc1nc2ccccc2cc1-c1cnc([C@H](CCCCCC(=O)c2ncco2)NC(=O)c2nc3ccccc3o2)[nH]1 . Observed IC50: 4.2

Readout IC50 for COc1nc2ccccc2cc1-c1cnc([C@H](CCCCCC(=O)c2ncco2)NC(=O)[C@@H]2CCC(=O)N2)[nH]1 , test system human HDAC3/SMRT heterodimer (Homo sapiens (Human), UniProt O15379), was 1

I looked up COc1cc2c(ccc(=O)n2C)cc1-c1cnc([C@H](CCCCCC(=O)c2ncco2)NC(=O)CN(C)C)[nH]1 and its IC50 for human HDAC3/SMRT heterodimer (Homo sapiens (Human), UniProt O15379) was 1.1

Record COc1nc2ccccc2cc1-c1cnc([C@H](CCCCCC(=O)c2ncco2)NC(=O)C2COCCO2)[nH]1 (stereo partly drawn) / human HDAC3/SMRT heterodimer (Homo sapiens (Human), UniProt O15379), IC50 recorded as 1.6

human HDAC3/SMRT heterodimer (Homo sapiens (Human), UniProt O15379) data for N[C@@H](CCCCCC(=O)c1ncco1)c1ncc(-c2ccc3nc(N4CCCC4)ccc3c2)[nH]1 ; its IC50: 1.5

Tested on human HDAC3/SMRT heterodimer (Homo sapiens (Human), UniProt O15379), the item COc1nc2ccccc2cc1-c1c[nH]c([C@H](CCCCCC(=O)c2ccon2)NC(=O)C2CCN(C)CC2)n1 showed IC50 equal to 1.5
